All figures here come from ChEMBL document CHEMBL2218924.

Overview of recorded residual activity for various compounds
Target: Cyclin-dependent kinase 5/CDK5 activator 1 (Homo sapiens) (UniProt Q00535+Q15078)
Sequence (Q00535 whole entry): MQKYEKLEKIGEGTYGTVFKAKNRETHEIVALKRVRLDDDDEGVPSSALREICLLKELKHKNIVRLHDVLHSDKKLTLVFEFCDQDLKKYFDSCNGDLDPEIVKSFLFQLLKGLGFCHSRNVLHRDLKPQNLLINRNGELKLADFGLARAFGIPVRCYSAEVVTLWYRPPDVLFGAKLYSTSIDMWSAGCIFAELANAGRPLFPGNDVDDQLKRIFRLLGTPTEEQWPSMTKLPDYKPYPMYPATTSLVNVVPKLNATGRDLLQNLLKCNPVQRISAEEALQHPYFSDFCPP
Sequence (Q15078 99-307 partner limits assumed): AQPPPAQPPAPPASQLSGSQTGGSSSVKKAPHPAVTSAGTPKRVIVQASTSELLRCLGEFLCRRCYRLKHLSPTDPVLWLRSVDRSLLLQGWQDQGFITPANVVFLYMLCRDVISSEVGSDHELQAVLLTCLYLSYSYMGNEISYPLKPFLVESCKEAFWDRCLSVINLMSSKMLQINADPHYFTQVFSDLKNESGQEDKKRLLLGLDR
Conditions: at 1 µM
Provide the reading as a plain figure in %.

# count of solved cases: 4
{"Compound": "O=C1NC(=O)/C(=C\\c2ccc3nccnc3c2)S1", "Subject of test": "Cyclin-dependent kinase 5/CDK5 activator 1 (Homo sapiens) (UniProt Q00535+Q15078)", "Unit text": "%", "residual activity": 96}
{"Compound": "Cc1cncc2cccc(S(=O)(=O)N3CCCN(C(=O)CN)C[C@H]3C)c12", "Subject of test": "Cyclin-dependent kinase 5/CDK5 activator 1 (Homo sapiens) (UniProt Q00535+Q15078)", "Unit text": "%", "residual activity": 89}
{"Compound": "NC(=O)c1ccc2[nH]c(-c3ccc(Oc4ccc(Cl)cc4)cc3)nc2c1", "Subject of test": "Cyclin-dependent kinase 5/CDK5 activator 1 (Homo sapiens) (UniProt Q00535+Q15078)", "Unit text": "%", "residual activity": 68}
{"Compound": "CC(=O)O/N=C1\\C(=C2\\C(=O)Nc3cc(Br)ccc32)Nc2ccccc21", "Subject of test": "Cyclin-dependent kinase 5/CDK5 activator 1 (Homo sapiens) (UniProt Q00535+Q15078)", "Unit text": "%", "residual activity": 35}

**Q:** Given the compound `COc1cccc(-c2cc(=O)c3ccccc3o2)c1N` , what is its reported residual activity?
**A:** 102

**Q:** Given the compound `Cc1cc(Nc2nc(-c3ccccc3)nc3ccccc23)n[nH]1` , what is its reported residual activity?
**A:** 69

**Q:** Given the compound O=C1Nc2ccccc2/C1=C1/Nc2ccccc2/C1=N\OCCC(O)CO (configuration not stated) , what is its reported residual activity?
**A:** 4

**Q:** Given the compound `O=C1NC(=O)/C(=C/c2ccc3c(c2)OC(F)(F)O3)S1` , what is its reported residual activity?
**A:** 102

**Q:** Given the compound `COc1ccc(S(=O)(=O)N(CCO)c2ccccc2CN(C)C/C=C/c2ccc(Cl)cc2)cc1` , what is its reported residual activity?
**A:** 91

**Q:** Given the compound `CCOc1cc2ncnc(Nc3cccc(Br)c3)c2cc1OCC` , what is its reported residual activity?
**A:** 105

**Q:** Given the compound `Oc1n[nH]c2nnc(-c3c(-c4ccccc4)nn4ccccc34)cc12` , what is its reported residual activity?
**A:** 96

**Q:** Given the compound `O=Nc1c(-c2c(O)[nH]c3ccccc23)[nH]c2ccccc12` , what is its reported residual activity?
**A:** 3
